// values below are reported Relative solubility
assay-overview: Solubility determination in D2O by 1H NMR with DSS internal standard

Example cases with answers are listed next.
>  <compound>
CC(C)c1cccc(C(C)C)c1OC(=O)OCCCO[C@H]1O[C@H](CO)[C@@H](O)[C@H](O)[C@H]1O

>  <reported-property>
Relative solubility

>  <recorded-value>
5.2 (8.1)^4

$$$$
>  <compound>
CC(C)c1cccc(C(C)C)c1OC(=O)OCCCO[C@@H]1O[C@H](CO)[C@@H](O)[C@H](O)[C@H]1O

>  <reported-property>
Relative solubility

>  <recorded-value>
5.0

$$$$
>  <compound>
CC(C)c1cccc(C(C)C)c1OC(=O)OCCO[C@@H]1O[C@H](CO)[C@@H](OC2O[C@H](CO)[C@@H](O)[C@H](O)[C@H]2O)[C@H](O)[C@H]1O (stereo partly drawn)

>  <reported-property>
Relative solubility

>  <recorded-value>
>20

$$$$
>  <compound>
CC(C)c1cccc(C(C)C)c1OC(=O)OCCO[C@H]1O[C@H](CO)[C@@H](O)[C@H](O)[C@H]1O

>  <reported-property>
Relative solubility

>  <recorded-value>
12.0

$$$$
>  <compound>
CC(C)c1cccc(C(C)C)c1OC(=O)OCCO[C@@H]1O[C@H](CO)[C@@H](O)[C@H](O)[C@H]1O

>  <reported-property>
Relative solubility

>  <recorded-value>
8.6

$$$$

Now for another entry.
Exam item: What does the data say about its Relative solubility? Entry: CC(C)c1cccc(C(C)C)c1OC(=O)OCCCO[C@@H]1O[C@H](CO)[C@@H](OC2O[C@H](CO)[C@@H](O)[C@H](O)[C@H]2O)[C@H](O)[C@H]1O (stereo partly drawn)
Marked response: >20
